# System: Avena fatua (AVEFA)
# ASSAY COMMENT: Example A glasshouse herbicide test, post-emergence, AVEFA
# Assay type: in vivo
# COND: Avena fatua, post-emergence, 312 h, Rate 250 g/ha, sprayed after 8 days cultivation, evaluated after 13 days, read-out: Post-Emergence Activity AVEFA (100=total damage to plant; 0=no damage to plant)
QUANTITY MEASURED: pest or weed control at 250 g/ha

1. Cc1cc(C)c(C2C(=O)CC(Cc3ccccc3F)C2=O)c(C)c1 (stereo not shown) [Compound A14]	30%
2. CC(=O)OC1CCC(CC2CC(=O)C(c3c(C)cc(C)cc3C)=C2OC(=O)C(C)(C)C)CC1 (stereo not shown) [Compound B4]	80%
3. Cc1cc(C)c(C2C(=O)CC(CC3CCCC(C)C3)C2=O)c(C)c1 (stereo not shown) [Compound A32]	90%
4. COc1ccc(CC2CC(OC(=O)C(C)(C)C)=C(c3c(C)cc(C)cc3C)C2=O)cc1 (stereo not shown) [Compound B19]	60%
